assay: viability loss in pontine glioma line – cell-based, SU-DIPG-XXV, MIPE5.0, CellTiter-Glo, qHTS, dose response (AID 1347065); details: CellTiter-Glo ATP luminescence;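 further: cells exposed to compound for 48 hours before ATP readout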
Records with an inconclusive call do not appear. Calls of active or inactive are those of the source. Cut-off not given; nearly all actives show AC50 up to about 26 µM.
Classes used: True (active), False (inactive)

- NC(=O)c1ncn([C@@H]2O[C@H](CO)[C@@H](O)[C@H]2O)c1O: False
- Nc1ncnc2c1ncn2[C@@H]1O[C@H](CO)[C@@H](O)[C@H]1O: False
- CC1(C)NC(=O)N(c2ccc([N+](=O)[O-])c(C(F)(F)F)c2)C1=O: False
- CCCN(CCC)C(=O)C(CCC(=O)O)NC(=O)c1ccccc1 (stereo unspecified): False
- Cc1cc2c(C(C)C)c(O)c(O)c(C=O)c2c(O)c1-c1c(C)cc2c(C(C)C)c(O)c(O)c(C=O)c2c1O: True
- CCN1CCCC1CNC(=O)c1cc(S(=O)(=O)CC)c(N)cc1OC (stereo unspecified): False
- CCCCCN(C)CCC(O)(P(=O)(O)O)P(=O)(O)O: False
- CCOC(=O)[C@H](CCc1ccccc1)N[C@@H](C)C(=O)N1CCC[C@H]1C(=O)O: False
- Cn1cnc2c1c(=O)[nH]c(=O)n2C: False
- CCN1CCN(C(=O)N[C@@H](C(=O)N[C@@H]2C(=O)N3C(C(=O)O)=C(CSc4nnnn4C)CS[C@H]23)c2ccc(O)cc2)C(=O)C1=O: False
- CCOC(=O)C(C)(C)Oc1ccc(Cl)cc1: False

* * *

assay: reduced SW480 viability measured with CellTiter-Glo, NPC library, primary (AID 1117343); conditions: CellTiter-Glo luminescence; at 20 µM (top of the series)
Active and inactive are the calls of the source.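 Rule for the calls: active = compounds that lower viability of the colon cancer cells in the luminescence readout, with no numeric limit stated; inactive = the rest.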
Classes used: active, inactive

* Cc1ccnc(NS(=O)(=O)c2ccc(N)cc2)n1 | inactive
* NC(=O)c1ccc([N+](=O)[O-])cc1Cl | inactive
* CC(=O)OCC1=C(C(=O)O)N2C(=O)[C@@H](NC(=O)Cc3cccs3)[C@H]2SC1 | inactive
* O=C(CCCCC(=O)Nc1c(I)cc(I)c(C(=O)O)c1I)Nc1c(I)cc(I)c(C(=O)O)c1I | inactive
* Oc1c(Br)cc(Br)c2cccnc12 | active
* CCOC(=O)NNc1nncc2ccccc12 | inactive
* COC(=O)C1=C(C)NC(C)=C(C(=O)OC(C)C)C1c1cccc2nonc12 (stereo unspecified) | inactive
* NC(N)=Nc1nc(CSCC/C(N)=N/S(N)(=O)=O)cs1 | inactive
* CNCCCCOc1ccccc1Cc1ccccc1 | active
* Cc1scc2c1N(C(=O)CN1CCN(C)CC1)c1ccccc1NC2=O | inactive
* C[C@@H]1CC[C@@]2(OC1)O[C@H]1C[C@H]3[C@@H]4CC[C@H]5C[C@@H](O)CC[C@]5(C)[C@H]4CC(=O)[C@]3(C)[C@H]1[C@@H]2C | inactive

* * *

test: compounds distorting NS3 helicase fluorescence signal – biochemical, NIH Clinical Collection, artefact control for HCV NS3 helicase inhibitor project (AID 743272); conditions: fluorescence interference counterscreen, HCV NS3 helicase assay; stronger effect = lower value;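 further: HCV NS3 helicase with a Cy5 labelled single stranded DNA probe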
quantity: fluorescence ratio

* C[C@@H]1C[C@H]2[C@@H]3CCC4=CC(=O)C=C[C@]4(C)[C@@]3(F)[C@@H](O)C[C@]2(C)[C@H]1C(=O)CO | 0.92
* CNCC(O)c1ccc(O)c(O)c1 (centres undefined) | 1.02
* OCc1cccnc1 | 0.87
* COC(=O)C1=C(C)NC(C)=C(C(=O)OCC(C)C)C1c1ccccc1[N+](=O)[O-] (centres undefined) | 0.91
* CN(C)CC/C=C1/c2ccccc2COc2ccc(CC(=O)O)cc21 | 0.94
* CC(=O)O[C@H]1C[C@@H]2CC[C@@H]3[C@H](CC[C@@]4(C)[C@H]3C[C@H]([N+]3(C)CCCCC3)[C@@H]4OC(C)=O)[C@@]2(C)C[C@@H]1N1CCCCC1 | 1
* CNNCc1ccc(C(=O)NC(C)C)cc1 | 1.02
* CNS(=O)(=O)Cc1ccc2[nH]cc(CCN(C)C)c2c1 | 1.03
* Nc1nc(N)nc(-c2cc(Cl)ccc2Cl)n1 | 1.02
* OCCOCCN1CCN(C2=Nc3ccccc3Sc3ccccc32)CC1 | 0.95
* CNCCCCOc1ccccc1Cc1ccccc1 | 0.96
* COCc1c(C(C)C)nc(C(C)C)c(/C=C/[C@@H](O)C[C@@H](O)CC(=O)O)c1-c1ccc(F)cc1 | 0.99
* CN(C)CC[C@@H](c1ccc(Br)cc1)c1ccccn1 | 0.87
* CCCN1CCCC[C@H]1C(=O)Nc1c(C)cccc1C | 0.92
* N#Cc1ccc(C(c2ccc(C#N)cc2)n2cncn2)cc1 | 0.97
* CC(c1cc2ccccc2s1)N(O)C(N)=O (centres undefined) | 1.01
* CC(=O)Nc1ccc(CC(=O)O)cc1 | 0.93
* O=C1c2cccc3c2[C@H](CCC3)CN1[C@@H]1CN2CCC1CC2 | 0.96
* CCCc1nc(C)c2c(=O)[nH]c(-c3cc(S(=O)(=O)N4CCN(CC)CC4)ccc3OCC)nn12 | 0.93
* CCN(CC)CCNC(=O)c1cc(Cl)c(N)cc1OC | 0.98
* CC(Oc1c(Cl)cccc1Cl)C1=NCCN1 (centres undefined) | 0.95
* CC(C)c1ccc2oc3nc(N)c(C(=O)O)cc3c(=O)c2c1 | 0.99
* NC1CCN(c2cccc(Cl)n2)CC1 | 0.9
* O=C1CC2(CCCC2)CC(=O)N1CCNCC1COc2ccccc2O1 (centres undefined) | 0.98

* * *

experiment: EMT-state selective cytotoxicity in co-culture – imaging, PC-3E GFP, TEM4-18 mCherry, primary screen (AID 1345086); settings: PC-3E GFP / TEM4-18 mCherry co-culture, imaging cell counts; at 1 µM; actives lie on both sides; counts scaled to control wells, 1 = unselective;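 further: normalised mesenchymal count divided by normalised epithelial count so high means epithelial killing; cells exposed to compound for 72 h before imaging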
Here the recorded red/green cell ratio (normalised) is given for each entry.
quantity: red/green cell ratio (normalised)

* Nc1ccc(C(=O)NCC(=O)O)cc1 | 1.12
* Cc1cc(NC(=O)C2=C(O)c3ccccc3S(=O)(=O)N2C)no1 | 0.87
* CC(N)CCCC(C)(C)O (stereo not drawn) | 0.95
* c1ccc(CN(CC2=NCCN2)c2ccccc2)cc1 | 1.08
* COc1ccc(-c2cc(C(F)F)nn2-c2ccc(S(N)(=O)=O)cc2)cc1F | 0.98
* Nc1ccc(C(=O)O)c(O)c1 | 0.88
* Nc1nc2c(ncn2CCC(CO)CO)c(=O)[nH]1 | 1
* COc1ccc(C(=O)NCc2ccc(OCCN(C)C)cc2)cc1OC | 0.88
* CCCc1cc(C(N)=S)ccn1 | 0.84
* CC1(C)S[C@@H]2[C@H](NC(=O)C(C(=O)O)c3ccccc3)C(=O)N2[C@H]1C(=O)O (stereo partly drawn) | 1.24
* COc1ccc(C2C(=O)c3ccccc3C2=O)cc1 | 0.84
* COc1cccc(OC)c1C(=O)N[C@@H]1C(=O)N2[C@@H]1SC(C)(C)[C@@H]2C(=O)O | 1
* C/C=C1\[C@H]2C=C(C)C[C@]1(N)c1ccc(=O)[nH]c1C2 | 1.22

* * *

test: yeast 75Q aggregation reduction – 75Q-TubU reporter (AID 1593); conditions: Yeast 75Q polyglutamine aggregation reporter
quantity: score

* Cn1c([N+](=O)[O-])cnc1COC(N)=O | 1.29
* C[N+]12CCC(CC1)C(OC(=O)C(O)(c1ccccc1)c1ccccc1)C2 (stereo not drawn) | 1.31
* O=C(O)c1ccccc1OP(=O)(O)O | 0.8
* CC(C(=O)O)c1ccc(C(=O)c2cccs2)cc1 (stereo not drawn) | 0.92
* Cc1cc(=O)n(-c2ccccc2)n1C | 1.07
* CC1CCC(NC(=O)N(CCCl)N=O)CC1 (stereo not drawn) | 0.02
* NC[C@H](O)c1ccc(O)c(O)c1 | 1.61
* CN(C)CCC(c1ccccc1)c1ccccn1 (stereo not drawn) | 1.44
* NC(=O)NO | 1.4
* C=CCSCC1Nc2cc(Cl)c(S(N)(=O)=O)cc2S(=O)(=O)N1 (stereo not drawn) | 0.96
* CN(C)/N=N/c1nc[nH]c1C(N)=O | 1.36
* Cc1cc(C2CCCCC2)n(O)c(=O)c1 | 0.13
* NC(CO)C(=O)NNCc1ccc(O)c(O)c1O (stereo not drawn) | 1.68
* Fc1ccc(C(c2ccc(F)cc2)N2CCN(C/C=C/c3ccccc3)CC2)cc1 | 0.72
* O=C(O)CCC(=O)c1ccc(-c2ccccc2)cc1 | -0.44
* CC1=C(C(=O)O)N2C(=O)[C@@H](NC(=O)[C@H](N)C3=CCC=CC3)[C@H]2SC1 | 1.49
* NCCCCCC(=O)O | 1.37
* C[N+](C)(C)CCOC(N)=O | 1.38
* CN(Cc1cnc2nc(N)nc(N)c2n1)c1ccc(C(=O)N[C@@H](CCC(=O)O)C(=O)O)cc1 | 0.69
* Nc1cc(-c2ccncc2)c[nH]c1=O | 1.14
* CN1CCOC(c2ccccc2)c2ccccc2C1 (stereo not drawn) | 1.08
* NS(=O)(=O)c1cc2c(cc1Cl)NC(CSCc1ccccc1)=NS2(=O)=O | 1.43
* CCC(Cc1c(I)cc(I)c(N)c1I)C(=O)O (stereo not drawn) | -1.24
* CN1CCC(OC(c2ccccc2)c2ccccc2)CC1 | 1.74
* Cc1ccc(C(C)C)cc2c(C)ccc1-2 | -2.73
* NCC1CCC(C(=O)O)CC1 (stereo not drawn) | 1.25
* CC(=O)OCC(COC(C)=O)OC(C)=O | 1.44
* CCC(=O)c1c(O)cc(O)cc1O | 0.94
* CC[C@]12CCCN3CCc4c(n(c5ccccc45)C(=O)C1)[C@@H]32 | 1.49
* C[C@](N)(Cc1ccc(O)c(O)c1)C(=O)O | 1.25
* O=C(O)c1cc(=O)c2ccccc2o1 | 1.58
* CN1CCN2c3ccccc3Cc3ccccc3C2C1 (stereo not drawn) | 1.13
* Cc1c(N(C)CS(=O)(=O)O)c(=O)n(-c2ccccc2)n1C | 1.22
* O=C(Nc1ccc([N+](=O)[O-])cc1Cl)c1cc(Cl)ccc1O | 1.5
* O=C1c2cccc(O)c2C(=O)c2c(O)cccc21 | -0.3
* Cc1cc(C)nc(NS(=O)(=O)c2ccc(N)cc2)n1 | 1.45
* Cc1cc(N)c2ccccc2[n+]1CCCCCCCCCC[n+]1c(C)cc(N)c2ccccc21 | 0.06
* CCCOc1ccccc1-c1nc2n[nH]nc2c(=O)[nH]1 | 0.63
* O=NN(CCCl)C(=O)NCCCl | 0.3
* CO[C@]12C[C@@H](COC(=O)c3cncc(Br)c3)CN(C)[C@@H]1Cc1cn(C)c3cccc2c13 | 0.99
* COc1ccc2[nH]cc(CCNC(C)=O)c2c1 | 1.34
* COc1ccc(CN(CCN(C)C)c2ccccn2)cc1 | 1.86
* CCCCOC(=O)c1ccc(N)cc1 | 0.73
* Clc1ccc(C(c2ccccc2Cl)C(Cl)Cl)cc1 (stereo not drawn) | -3.35
* Cc1cc(C(C)(C)C)c(O)c(C)c1CC1=NCCN1 | 1.29
* COc1ccc(CCN(C)CCCC(C#N)(c2ccc(OC)c(OC)c2)C(C)C)cc1OC (stereo not drawn) | 1.28
* O=C(O)P(=O)(O)O | 1.28
* Cn1cnc2c1c(=O)[nH]c(=O)n2C | 1.43
* C=Cc1c(C)c2cc3[nH]c(cc4nc(cc5nc(cc1[nH]2)C(C)=C5CCC(=O)O)C(CCC(=O)O)=C4C)c(C)c3C=C | 0.75
* CCCCC(CC)CN=C(N)NC(N)=NCCCCCCN=C(N)NC(N)=NCC(CC)CCCC (stereo not drawn) | -1.46
* CC(N)CCCC(C)(C)O (stereo not drawn) | 1.12
* C=CCc1ccc(O)c(OC)c1 | 1.31
* OCc1ccccc1O | 1.17
